- ASSAY_EXPLANATION: Induction of apoptosis in TNFalpha-treated human HepG2 cells assessed as normal cells at 2 uM incubated for 10 hrs by FITC Annexin V and propidium iodide staining based flow cytometric analysis (reference value: 88.37%)
- Type: cell-based
- CONDITIONS: read-out: Activity
Readings of viability at 10 h, 2 µM for the listed molecules
REPORTED_ENDPOINT: viability at 10 h, 2 µM (%)

INSERT INTO assay_data (molecule, reported_endpoint, readout_number) VALUES
  ('Cc1c(O)c(O)cc2c1CC=C1[C@@]2(C)CC[C@@]2(C)[C@@H]3C[C@](C)(C(=O)O)CC[C@]3(C)CC[C@]12C [DIHYDROCELASTROL]', 'viability at 10 h, 2 µM', 85),
  ('CCNC(=O)[C@]1(C)CC[C@]2(C)CC[C@]3(C)C4=CC=C5C(=CC(=O)C(O)=C5C)[C@]4(C)CC[C@@]3(C)[C@@H]2C1', 'viability at 10 h, 2 µM', 53.7),
  ('CC1=C(O)C(=O)C=C2C1=CC=C1[C@@]2(C)CC[C@@]2(C)[C@@H]3C[C@](C)(C(=O)O)CC[C@]3(C)CC[C@]12C', 'viability at 10 h, 2 µM', 62.9);

----------
Listed here: items and their measured pKd.
- SUBJECT_OF_TEST: Nuclear receptor subfamily 4immunitygroup A member 1 (Homo sapiens, UniProt P22736)
- Sequence (P22736 whole entry, the tested form may be a part): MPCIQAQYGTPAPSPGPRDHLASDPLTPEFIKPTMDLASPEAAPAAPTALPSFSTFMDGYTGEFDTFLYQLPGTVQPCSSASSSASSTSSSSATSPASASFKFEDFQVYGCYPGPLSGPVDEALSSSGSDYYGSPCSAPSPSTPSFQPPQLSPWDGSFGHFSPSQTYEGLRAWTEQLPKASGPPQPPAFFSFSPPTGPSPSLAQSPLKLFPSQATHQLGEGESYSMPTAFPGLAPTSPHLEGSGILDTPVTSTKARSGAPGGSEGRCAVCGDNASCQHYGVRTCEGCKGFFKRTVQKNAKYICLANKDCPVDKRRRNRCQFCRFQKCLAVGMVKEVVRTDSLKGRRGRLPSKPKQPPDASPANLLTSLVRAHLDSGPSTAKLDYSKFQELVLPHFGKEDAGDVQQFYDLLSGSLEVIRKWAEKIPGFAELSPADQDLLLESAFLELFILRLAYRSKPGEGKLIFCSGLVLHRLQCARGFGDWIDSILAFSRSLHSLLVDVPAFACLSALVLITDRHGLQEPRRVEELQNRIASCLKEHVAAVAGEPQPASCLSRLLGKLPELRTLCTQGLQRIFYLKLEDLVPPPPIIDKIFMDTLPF
- ASSAY_EXPLANATION: Binding affinity to recombinant human N-terminal His-tagged Nur77 LBD (367 to 598 residues) expressed in Escherichia coli BL21(DE3) incubated for 30 secs by fluorescence quenching assay
- CONDITIONS: read-out: Kd
pKd: −log10 of the molar value.
REPORTED_ENDPOINT: pKd

INSERT INTO results (molecule, readout_number) VALUES
  ('CNC(=O)[C@]1(C)CC[C@]2(C)CC[C@]3(C)C4=CC=C5C(=CC(=O)C(O)=C5C)[C@]4(C)CC[C@@]3(C)[C@@H]2C1', 6.10),
  ('Cc1c(O)c(O)cc2c1CC=C1[C@@]2(C)CC[C@@]2(C)[C@@H]3C[C@](C)(C(=O)O)CC[C@]3(C)CC[C@]12C [DIHYDROCELASTROL]', 6.06),
  ('CCOC1=C(C)C2=CC=C3[C@@](C)(CC[C@@]4(C)[C@@H]5C[C@](C)(C(=O)OC)CC[C@]5(C)CC[C@]34C)C2=CC1=O', 5.38),
  ('Cc1c(O)c(O)cc2c1C(=O)C=C1[C@@]2(C)CC[C@@]2(C)[C@@H]3C[C@](C)(C(=O)O)CC[C@]3(C)CC[C@]12C', 5.57),
  ('Cc1c(O)c(O)cc2c1[C@H](C[N+](=O)[O-])C=C1[C@@]2(C)CC[C@@]2(C)[C@@H]3C[C@](C)(C(=O)O)CC[C@]3(C)CC[C@]12C', 5.25),
  ('COC(=O)[C@]1(C)CC[C@]2(C)CC[C@]3(C)C4=CC=C5C(=CC(=O)C(O)=C5C)[C@]4(C)CC[C@@]3(C)[C@@H]2C1 [PRISTIMERIN]', 6.02),
  ('CCCNC(=O)[C@]1(C)CC[C@]2(C)CC[C@]3(C)C4=CC=C5C(=CC(=O)C(O)=C5C)[C@]4(C)CC[C@@]3(C)[C@@H]2C1', 6.57),
  ('CCNC(=O)[C@]1(C)CC[C@]2(C)CC[C@]3(C)C4=CC=C5C(=CC(=O)C(O)=C5C)[C@]4(C)CC[C@@]3(C)[C@@H]2C1', 6.08),
  ('COC(=O)[C@]1(C)CC[C@]2(C)CC[C@]3(C)C4=CC=C5C(=CC(=O)C(OC)=C5C)[C@]4(C)CC[C@@]3(C)[C@@H]2C1', 5.53),
  ('CC1=C(O)C(=O)C=C2C1=CC=C1[C@@]2(C)CC[C@@]2(C)[C@@H]3C[C@](C)(C(=O)OC(C)C)CC[C@]3(C)CC[C@]12C', 6.28),
  ('CC1=C(O)C(=O)C=C2C1=CC=C1[C@@]2(C)CC[C@@]2(C)[C@@H]3C[C@](C)(C(=O)F)CC[C@]3(C)CC[C@]12C', 6.14),
  ('CCOC(=O)[C@]1(C)CC[C@]2(C)CC[C@]3(C)C4=CC=C5C(=CC(=O)C(O)=C5C)[C@]4(C)CC[C@@]3(C)[C@@H]2C1', 6.66),
  ('CC(=O)C[C@@H]1C=C2[C@@](C)(CC[C@@]3(C)[C@@H]4C[C@](C)(C(=O)O)CC[C@]4(C)CC[C@]23C)c2cc(O)c(O)c(C)c21', 5.42),
  ('COC(=O)[C@]1(C)CC[C@]2(C)CC[C@]3(C)C4=CC=C5C(=CC(=O)C(OCC(F)F)=C5C)[C@]4(C)CC[C@@]3(C)[C@@H]2C1', 5.48);
